Sourced from ChEMBL document CHEMBL1156608

# assayed target: Galectin-3 (Homo sapiens)
# Sequence (P17931 whole entry): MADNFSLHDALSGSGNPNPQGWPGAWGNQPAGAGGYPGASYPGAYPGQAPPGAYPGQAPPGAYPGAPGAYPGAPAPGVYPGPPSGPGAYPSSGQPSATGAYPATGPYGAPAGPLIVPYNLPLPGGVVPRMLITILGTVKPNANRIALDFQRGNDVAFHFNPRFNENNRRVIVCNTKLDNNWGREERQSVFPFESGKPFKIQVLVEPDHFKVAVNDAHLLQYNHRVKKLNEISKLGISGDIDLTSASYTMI
# test protocol: Inhibition of recombinant galectin 3 in human O type red blood cells by hemagglutinination assay relative to lactose
readout name: Activity

1. OC[C@@H]1O[C@H](n2cc(CS[C@@H]3O[C@H](CO)[C@H](O)[C@H](O)[C@H]3O)nn2)[C@@H](O)[C@H](O)[C@@H]1O
2. OC[C@@H]1O[C@H](O[C@@H]2[C@@H](O)[C@H](O)[C@@H](n3cc(CS[C@@H]4O[C@H](CO)[C@H](O)[C@H](O)[C@H]4O)nn3)O[C@H]2CO)[C@@H](O)[C@H](O)[C@@H]1O
3. OC[C@@H]1O[C@H](n2cc(CS[C@@H]3O[C@H](CO)[C@@H](O[C@@H]4O[C@H](CO)[C@H](O)[C@H](O)[C@H]4O)[C@H](O)[C@H]3O)nn2)[C@@H](O)[C@H](O)[C@@H]1O
Data request: // ranking: key=Activity, reverse=True List the labels according to the requested ordering.
Data returned: 1, 3, 2
(1: 10, 3: 1.3, 2: 0.7)
